Reference source: paper PMC6766871

TARGET_SYSTEM: CSF1R (Homo sapiens)
Sequence (P07333 20-972): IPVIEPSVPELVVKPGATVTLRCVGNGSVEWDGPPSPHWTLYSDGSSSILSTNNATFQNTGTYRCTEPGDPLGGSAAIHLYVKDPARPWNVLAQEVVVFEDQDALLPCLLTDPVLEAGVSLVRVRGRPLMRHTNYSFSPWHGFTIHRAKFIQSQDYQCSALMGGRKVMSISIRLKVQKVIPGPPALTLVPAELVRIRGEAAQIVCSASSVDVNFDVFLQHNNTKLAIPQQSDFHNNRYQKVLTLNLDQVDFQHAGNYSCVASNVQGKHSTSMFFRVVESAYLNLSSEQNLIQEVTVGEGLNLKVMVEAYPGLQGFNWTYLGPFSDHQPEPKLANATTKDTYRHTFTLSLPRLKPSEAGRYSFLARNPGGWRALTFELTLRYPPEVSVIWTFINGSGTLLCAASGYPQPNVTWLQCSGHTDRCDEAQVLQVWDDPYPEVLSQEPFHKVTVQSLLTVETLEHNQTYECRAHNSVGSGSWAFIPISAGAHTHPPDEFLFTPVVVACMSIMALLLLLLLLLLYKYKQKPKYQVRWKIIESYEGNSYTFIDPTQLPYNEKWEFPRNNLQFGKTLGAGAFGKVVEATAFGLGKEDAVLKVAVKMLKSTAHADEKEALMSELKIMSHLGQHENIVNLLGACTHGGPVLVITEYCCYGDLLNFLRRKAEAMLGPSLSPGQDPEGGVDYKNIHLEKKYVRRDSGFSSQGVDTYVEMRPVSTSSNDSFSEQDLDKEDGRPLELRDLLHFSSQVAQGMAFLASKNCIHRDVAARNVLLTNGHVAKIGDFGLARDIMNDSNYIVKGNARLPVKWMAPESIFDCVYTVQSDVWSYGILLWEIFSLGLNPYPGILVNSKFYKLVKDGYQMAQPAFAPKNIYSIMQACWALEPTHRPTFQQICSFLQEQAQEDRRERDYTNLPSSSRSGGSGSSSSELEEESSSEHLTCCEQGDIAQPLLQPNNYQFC
MEASUREMENT_KIND: pIC50
On this scale, pIC50 is minus log10 of a concentration expressed in M (mol/L).

stdin: Consider the compound `COCc1c(-c2cc3cc(C)cc(OC)c3s2)c2c(N)ncnn2c1CN1CCNC(=O)C1` and give its measured pIC50.
stdout: 6.78

###

TARGET_SYSTEM: VEGFR3 (Homo sapiens, UniProt P35916)
Sequence (P35916 25-1363): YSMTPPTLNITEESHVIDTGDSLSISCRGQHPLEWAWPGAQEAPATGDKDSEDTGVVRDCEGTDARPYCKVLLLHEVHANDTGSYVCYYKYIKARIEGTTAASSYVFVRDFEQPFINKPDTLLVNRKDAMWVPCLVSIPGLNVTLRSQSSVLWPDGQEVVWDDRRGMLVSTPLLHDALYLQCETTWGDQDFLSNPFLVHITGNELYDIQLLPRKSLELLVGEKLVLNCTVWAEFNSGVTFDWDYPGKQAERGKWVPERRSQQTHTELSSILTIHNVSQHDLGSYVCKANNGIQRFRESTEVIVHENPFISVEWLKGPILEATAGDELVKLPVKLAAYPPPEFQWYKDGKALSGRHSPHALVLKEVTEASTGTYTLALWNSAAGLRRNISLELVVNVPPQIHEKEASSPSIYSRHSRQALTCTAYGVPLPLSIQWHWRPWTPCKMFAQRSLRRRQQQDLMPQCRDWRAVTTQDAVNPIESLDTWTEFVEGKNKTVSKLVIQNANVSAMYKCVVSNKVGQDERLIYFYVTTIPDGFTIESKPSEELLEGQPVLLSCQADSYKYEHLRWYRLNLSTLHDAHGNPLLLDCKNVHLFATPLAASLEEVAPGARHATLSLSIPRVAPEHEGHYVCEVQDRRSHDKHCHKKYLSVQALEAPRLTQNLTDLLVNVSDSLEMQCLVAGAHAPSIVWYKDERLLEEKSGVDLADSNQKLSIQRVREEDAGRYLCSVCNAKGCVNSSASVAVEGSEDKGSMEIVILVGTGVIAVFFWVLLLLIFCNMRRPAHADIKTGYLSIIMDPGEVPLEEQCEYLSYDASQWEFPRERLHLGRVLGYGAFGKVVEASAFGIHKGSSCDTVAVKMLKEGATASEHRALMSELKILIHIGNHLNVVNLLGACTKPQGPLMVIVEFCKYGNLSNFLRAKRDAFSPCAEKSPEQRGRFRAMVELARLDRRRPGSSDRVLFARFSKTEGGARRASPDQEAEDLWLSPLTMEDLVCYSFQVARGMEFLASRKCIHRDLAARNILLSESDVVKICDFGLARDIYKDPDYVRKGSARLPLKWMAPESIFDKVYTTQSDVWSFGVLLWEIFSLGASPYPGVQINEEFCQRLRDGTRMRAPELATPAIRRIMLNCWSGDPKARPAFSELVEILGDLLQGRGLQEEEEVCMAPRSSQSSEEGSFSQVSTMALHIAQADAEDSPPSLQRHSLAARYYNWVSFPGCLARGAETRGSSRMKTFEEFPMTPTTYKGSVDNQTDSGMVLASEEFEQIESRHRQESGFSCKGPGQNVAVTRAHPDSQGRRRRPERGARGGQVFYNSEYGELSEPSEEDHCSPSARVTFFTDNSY
MEASUREMENT_KIND: IC50 (nM)
Your answer is read as nM, so omit the unit and give the number.

stdin: Checklist item: IC50 tested on VEGFR3 (Homo sapiens, UniProt P35916), entry COCc1c(-c2cc3cc(C)cc(OC)c3s2)c2c(N)ncnn2c1CN1CCNC(=O)C1 [rogaratinib] , value?
stdout: 130

###

TARGET_SYSTEM: VEGFR3 (Homo sapiens, UniProt P35916)
MEASUREMENT_KIND: Kd
Note to self: number, then unit, no commentary.

stdin: What measured Kd goes with `COCc1c(-c2cc3cc(C)cc(OC)c3s2)c2c(N)ncnn2c1CN1CCNC(=O)C1` ?
stdout: 150 nM
